Where do these numbers come from? They come from patent US11426393B2.

# TEST_SYSTEM: human EGLN-3 (Homo sapiens (Human), UniProt Q9H6Z9)
# Sequence (Q9H6Z9 whole entry): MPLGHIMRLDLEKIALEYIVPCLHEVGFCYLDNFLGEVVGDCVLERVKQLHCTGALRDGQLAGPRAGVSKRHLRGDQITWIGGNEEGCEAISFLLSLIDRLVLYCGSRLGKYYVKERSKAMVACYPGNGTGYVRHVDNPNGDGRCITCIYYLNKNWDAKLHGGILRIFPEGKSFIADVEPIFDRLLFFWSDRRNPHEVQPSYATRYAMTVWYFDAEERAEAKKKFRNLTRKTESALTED
# ASSAY_NOTES: EGLN-3 activity assay (MALDI-TOF MS)
# CONDITIONS_USED: His-MBP-TVMV-EGLN-3 fusion; HIF-1α peptide 556-574 as substrate; read-out: EGLIN3 IC50
pIC50: −log10 of the molar value.
PROPERTY: pIC50

INSERT INTO measurements (smiles_entry, property, number) VALUES
  ('CNC(=O)CNC(=O)c1ncc(-c2cccc(Cl)c2)cc1O', 'pIC50', 5.89);

* * *

# TEST_SYSTEM: human EGLN-1 (Homo sapiens (Human))
# Sequence (Q9GZT9 179-426): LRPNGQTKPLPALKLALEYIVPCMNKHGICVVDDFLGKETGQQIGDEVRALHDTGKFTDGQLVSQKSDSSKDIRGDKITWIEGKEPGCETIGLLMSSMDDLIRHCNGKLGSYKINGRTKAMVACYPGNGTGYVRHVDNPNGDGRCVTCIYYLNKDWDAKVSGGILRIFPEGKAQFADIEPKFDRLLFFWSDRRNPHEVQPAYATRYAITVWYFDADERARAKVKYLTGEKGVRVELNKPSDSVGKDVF
pIC50: −log10 of the molar value.
PROPERTY: pIC50

INSERT INTO results (smiles_entry, number) VALUES
  ('CNC(=O)CNC(=O)c1ncc(-c2cccc(Cl)c2)cc1O', 5.92);

* * *

# Test system: VEGF
# ASSAY_NOTES: VEGF ELISA assay
# Format: cell-based
# CONDITIONS_USED: Homo sapiens; HEK293 cells; % of DFO stimulation
pEC50: −log10 of the molar value.
Label TRUE when pEC50 is at or above 5; anything below gets FALSE.

INSERT INTO results (smiles_entry, category) VALUES
  ('Cc1ccc(-c2ccc(C(=O)NCC(=O)O)c(O)c2)cc1', 'FALSE'),
  ('COC(=O)CNC(=O)c1ncc(-c2cccc(C(=O)N3CCCC3)c2)cc1O', 'FALSE'),
  ('N#Cc1cccc(-c2cnc(C(=O)NCC(=O)O)c(O)c2)c1', 'FALSE'),
  ('CNC(=O)CNC(=O)c1ncc(-c2cccc(Cl)c2)cc1O', 'TRUE'),
  ('COC(=O)CNC(=O)c1ncc(-c2ccc(Cl)cc2)cc1O', 'FALSE'),
  ('O=C(O)CNC(=O)c1ncc(-c2cccc(-c3nn[nH]n3)c2)cc1O', 'FALSE'),
  ('CC(C)c1ccc(-c2cnc(C(=O)NCC(=O)O)c(O)c2)cc1', 'FALSE'),
  ('CC(C)Oc1ccc(-c2cnc(C(=O)NCC(=O)O)c(O)c2)cc1', 'FALSE'),
  ('Cc1ccc(Cl)cc1-c1cnc(C(=O)NCC(=O)O)c(O)c1', 'TRUE'),
  ('O=C(O)CNC(=O)c1ncc(-c2cccc(C(=O)N3CCCC3)c2)cc1O', 'FALSE'),
  ('COC(=O)CNC(=O)c1ncc(-c2cccc(C(N)=O)c2)cc1O', 'FALSE');

* * *

# Tested on: VEGF
# ASSAY_NOTES: VEGF ELISA assay
# Format: cell-based
# CONDITIONS_USED: Homo sapiens; HEK293 cells; % of DFO stimulation
pEC50: −log10 of the molar value.
PROPERTY: pEC50

INSERT INTO assay_data (compound, property, number) VALUES
  ('COC(=O)CNC(=O)c1ncc(-c2ccc(C)cc2)cc1O', 'pEC50', 5.09),
  ('COC(=O)CNC(=O)c1ncc(-c2ccccc2Cl)cc1O', 'pEC50', 5.11),
  ('COC(=O)CNC(=O)c1ncc(-c2cccc(Cl)c2)cc1O', 'pEC50', 5.00),
  ('O=C(O)CNC(=O)c1ncc(-c2cccc(Cl)c2)cc1O [drawing 122]', 'pEC50', 5.12);
